Values compiled from PubChem BioAssay (NCI).

# Test system: U251 CNS
Labels: True = active, False = inactive

{"Compound": "CCOC(=O)c1cc2cc(NC(=O)c3cc4cc([N+](=O)[O-])ccc4n3C)ccc2n1C", "Category label": "False"}
{"Compound": "C[C@@H]1CC[C@H]2C(COC/C=C/COCC3=C(C(F)(F)F)O[C@@H]4O[C@@]5(C)CC[C@H]6[C@H](C)CC[C@@H]3[C@@]46OO5)=C(C(F)(F)F)O[C@@H]3O[C@@]4(C)CC[C@@H]1[C@]32OO4", "Category label": "True"}
{"Compound": "CCCC(=O)NC(c1ccc2c(c1)OCO2)c1ccc2cccnc2c1O (centres undefined)", "Category label": "False"}
{"Compound": "O=C(Nc1cccc2cccnc12)c1ccc(N2C(=O)[C@@H]3[C@H](C2=O)[C@@H]2C=C[C@H]3C2)cc1", "Category label": "False"}
